- System: SDMA in human colon cancer cell line HCT116
- Assay Notes: Cell symmetric dimethylarginine (SDMA) test, In-cell Western, HCT116 (MTAP wild-type)
- Format: cell-based
- Condition Details: Homo sapiens, HCT-116, 96 h, read-out: Cell 96 h SDMA inhibition (HCT116-MTAP+/+)
pIC50: −log10 of the molar value.
Recorded pIC50, one value per entry.
Measure Name: pIC50

[[record]]
molecule_smiles = "Cn1cc2c(n1)c(=O)n(-c1cccc(O)c1)c1cc(C(F)(F)F)ccc21"
test_target = "SDMA in human colon cancer cell line HCT116"
value = 6.06

[[record]]
molecule_smiles = "Cc1ncccc1-n1c(=O)c2nn(CC3CC3)cc2c2ccc(C(F)(F)F)nc21"
test_target = "SDMA in human colon cancer cell line HCT116"
value = 5.89

[[record]]
molecule_smiles = "O=c1c2nn(CC3CC3)cc2c2ccc(C(F)(F)F)nc2n1-c1cccnc1"
test_target = "SDMA in human colon cancer cell line HCT116"
value = 6.05


----------
- Test Target: MAT2A recombinant protein (Homo sapiens, UniProt P31153)
- Sequence (P31153 whole entry): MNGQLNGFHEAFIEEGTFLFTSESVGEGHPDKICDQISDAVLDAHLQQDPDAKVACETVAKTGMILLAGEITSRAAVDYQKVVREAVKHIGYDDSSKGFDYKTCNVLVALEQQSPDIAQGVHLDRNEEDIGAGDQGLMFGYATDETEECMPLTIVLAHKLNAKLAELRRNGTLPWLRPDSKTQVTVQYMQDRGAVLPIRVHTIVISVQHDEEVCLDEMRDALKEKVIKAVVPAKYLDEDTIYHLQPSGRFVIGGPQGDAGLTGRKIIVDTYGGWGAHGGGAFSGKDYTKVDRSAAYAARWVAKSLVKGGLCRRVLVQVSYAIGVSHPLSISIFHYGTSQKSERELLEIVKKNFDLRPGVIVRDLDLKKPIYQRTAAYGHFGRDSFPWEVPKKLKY
- Assay Notes: MAT2A inhibitory activity (malachite green colorimetric enzyme assay)
- Format: biochemical
- Condition Details: read-out: MAT2A Inhibition
Measure Name: IC50 (nM)

[[record]]
compound = "Cn1cc2c(n1)c(=O)n(-c1cccc3[nH]ncc13)c1cc(Cl)c(F)cc21"
measure_name = "IC50"
result_unit = "nM"
value = 39.6

[[record]]
compound = "CNC(=O)CC1N=c2c(c3ccc(Cl)cc3n(-c3cccnc3)c2=O)=N1 (stereo not drawn)"
measure_name = "IC50"
result_unit = "nM"
value = 51.7

[[record]]
compound = "Cn1cc2c(n1)c(=O)n(-c1cccnc1)c1cc(C(F)(F)F)ccc21"
measure_name = "IC50"
result_unit = "nM"
value = 28

[[record]]
compound = "Cn1cc2c(n1)c(=O)n(-c1ccc3[nH]cnc3c1)c1cc(Cl)ccc21"
measure_name = "IC50"
result_unit = "nM"
value = 93

[[record]]
compound = "Cc1ncccc1-n1c(=O)c2nn(C)cc2c2ccc(Cl)cc21 [Compound B65]"
measure_name = "IC50"
result_unit = "nM"
value = 34.1

[[record]]
compound = "CCn1nc2c(=O)n(-c3cccnc3)c3cc(Cl)ccc3c2c1Cl"
measure_name = "IC50"
result_unit = "nM"
value = 37.2

